- target entity: PfENT1 (Plasmodium falciparum)
- Construct: expressed in transfected cells; host or cells: fui1Δ yeast (Saccharomyces cerevisiae), co-expressing GFP
- Sequence (Q8IDM6 whole entry): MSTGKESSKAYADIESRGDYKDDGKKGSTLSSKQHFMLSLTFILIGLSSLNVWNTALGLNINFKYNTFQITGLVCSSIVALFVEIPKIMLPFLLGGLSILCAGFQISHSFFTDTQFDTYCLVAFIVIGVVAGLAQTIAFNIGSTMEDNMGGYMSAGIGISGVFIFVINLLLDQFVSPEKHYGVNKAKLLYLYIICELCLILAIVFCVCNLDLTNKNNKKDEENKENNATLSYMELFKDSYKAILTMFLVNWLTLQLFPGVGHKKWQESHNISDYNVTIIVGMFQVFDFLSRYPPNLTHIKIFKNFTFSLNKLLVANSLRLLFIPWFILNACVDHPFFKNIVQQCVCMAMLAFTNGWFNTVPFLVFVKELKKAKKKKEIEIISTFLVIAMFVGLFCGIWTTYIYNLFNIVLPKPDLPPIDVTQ
- Type: cell-based
- condition label: primary HTS, compounds at 10 μM, 125 μM 5-FUrd
# key: entry, value: Avg Normalized % maximal activity
observed property: Avg Normalized % maximal activity

INSERT INTO assay_data (compound, observed_property, result) VALUES
  ('O=C(Nc1cccc(-c2nc3ncccc3o2)c1)c1ccco1', 'Avg Normalized % maximal activity', '32.85%'),
  ('CC(C)[C@@H]1CC[C@@H](C)CC1=O', 'Avg Normalized % maximal activity', '3.73%'),
  ('O=C(CSc1nnc2ccc3ccccc3n12)Nc1ccccc1F', 'Avg Normalized % maximal activity', '7.69%'),
  ('Cc1ccc2n1CCN(C(=O)c1ccc(S(=O)(=O)N(C)C)cc1)C2C (centres unmarked)', 'Avg Normalized % maximal activity', '3.43%'),
  ('COc1ccc(C(=O)Nc2ccc(-c3nc4ncccc4o3)cc2C)cc1OC', 'Avg Normalized % maximal activity', '10.61%'),
  ('O=C(Nc1ccc(-c2nnc(-c3ccco3)o2)cc1)c1ccco1', 'Avg Normalized % maximal activity', '74.03%'),
  ('COc1ccc(/C=C/c2nc(C#N)c(N3CCCCC3)o2)cc1OC', 'Avg Normalized % maximal activity', '3.74%'),
  ('CCOC(=O)c1ccc(NC(=O)c2nc(SC)ncc2Cl)cc1', 'Avg Normalized % maximal activity', '5.19%'),
  ('CCOc1ccc2c(C)cc(=O)oc2c1C', 'Avg Normalized % maximal activity', '3.21%'),
  ('CCOC(=O)c1ccc(NC(=O)c2nn(CC)cc2Br)cc1', 'Avg Normalized % maximal activity', '6.01%'),
  ('Cc1cc(C)nc(NC(=O)c2cc3c(s2)CCCC3)n1', 'Avg Normalized % maximal activity', '3.27%'),
  ('COc1ccc(C2CC(c3ccccc3C)n3nc(N)nc3N2)cc1 (centres unmarked)', 'Avg Normalized % maximal activity', '3.57%'),
  ('Cc1ccc(C(=O)Nc2ccc(C(=O)N3CCCCC3)cc2)cc1', 'Avg Normalized % maximal activity', '5.63%'),
  ('O=C(Nc1cccc(-c2nc3ncccc3o2)c1)c1ccccc1F', 'Avg Normalized % maximal activity', '4.92%'),
  ('O=C(CCCN1C(=O)c2cccc3cccc(c23)C1=O)N1CCCCC1', 'Avg Normalized % maximal activity', '6.67%'),
  ('Cc1ccc(C(=O)c2cccc(NC(=O)c3cccs3)c2)cc1C', 'Avg Normalized % maximal activity', '2.71%'),
  ('COc1ccccc1CN1CCN(Cc2ccccn2)CC1', 'Avg Normalized % maximal activity', '6.74%'),
  ('O=C(Nc1ccc(-c2nnc(-c3ccccc3)o2)cc1)c1ccco1', 'Avg Normalized % maximal activity', '13.43%'),
  ('COC(=O)c1ccccc1NC(=O)c1ccc(NC(=O)C2CCCO2)cc1 (centres unmarked)', 'Avg Normalized % maximal activity', '4.83%'),
  ('COc1cc(COc2ccc3c(C)cc(=O)oc3c2)cc(OC)c1OC', 'Avg Normalized % maximal activity', '84.71%');
